SYSTEM_UNDER_TEST: CDK2/Cyclin E1 (Homo sapiens (Human), UniProt P24941)
PROTOCOL_DESCRIPTION: biochemical
PROTOCOL_CONDITIONS: CDK2_Ki (nM), phosphorylated CDK2/Cyclin E1, 150 μM ATP, Morrison tight-binding fit
OBSERVABLE: Ki (nM)

Consider the following illustrative entries.
Recorded result, C[C@@H]1[C@H](O)CC[C@H]1n1c(=O)c(CC(F)F)cc2cnc(NC3CCN(S(C)(=O)=O)CC3)nc21 (single isomer, unassigned) [Example 206] , Ki: 0.57

Recorded result, COCCS(=O)(=O)N1CCC(Nc2ncc3ccc(=O)n([C@H]4CCC[C@]4(C)O)c3n2)CC1 (single isomer, unassigned) [Example 73] , Ki: 5.03

Recorded result, CC(C)(O)CS(=O)(=O)N1CCC(Nc2ncc3ccc(=O)n(C4CCCC4)c3n2)CC1 [Example 17] , Ki: 1.79

[P] COCCS(=O)(=O)N1CCC(Nc2ncc3ccc(=O)n(C4CCCC4)c3n2)CC1 [Example 15]
[Q] CS(=O)(=O)N1CCC(Nc2ncc3cc(CC(N)=O)c(=O)n([C@@H]4CCC[C@@H](O)C4)c3n2)CC1 (single isomer, unassigned) [Example 213]
Qu. Hey, between P and Q which has a smaller measured Ki? Indicate which entry you chose by stating its label.
Ans. P
